- assay procedure: AUC in rat at 10 mg/kg, po after 6 hrs
- measurement parameters: in vivo
We begin with a simple list: items and their reported AUC at 6 h.
property measured: AUC at 6 h (µM·h)

smiles structure	unit abbrev	observed
CC[C@H]1CN(c2ncc(C(=O)NC3CC3)nc2C(F)(F)F)CCN1C1CCN(C(=O)c2ccc(Cl)nc2N)CC1	µM·h	3.6
CCNC(=O)c1cnc(N2CCN(C3CCN(Cc4ccc(Cl)cc4)CC3)[C@@H](CC)C2)c(Cl)c1	µM·h	0.4
CC[C@H]1CN(c2ncc(C(=O)NC)nc2C(F)(F)F)CCN1C1CCN(C(=O)c2ccc(Cl)nc2N)CC1	µM·h	6.4
CC[C@H]1CN(c2ncc(C(N)=O)nc2C)CCN1C1CCN(C(=O)c2ccc(Cl)nc2N)CC1	µM·h	30.2
CC[C@H]1CN(c2ncc(C(=O)NC3CC3)nc2C)[C@H](C)CN1C1CCN(C(=O)c2ccc(Cl)cc2)CC1	µM·h	9.8
CC[C@H]1CN(c2nc(N)c(C(=O)NCCO)nc2Cl)CCN1C1CCN(C(=O)c2ccc(Cl)nc2N)CC1	µM·h	5.9
CC[C@H]1CN(c2ncc(C(N)=O)nc2C(F)(F)F)CCN1C1CCN(C(=O)c2ccc(Cl)nc2N)CC1	µM·h	15.3
CCNC(=O)c1cnc(N2CCN(C3CCN(C(=O)c4ccc(Cl)cc4)CC3)[C@@H](CC)C2)c(C)n1	µM·h	2.9
